Consider the following IC50 values measured on Prostaglandin G/H synthase 1 (Homo sapiens, UniProt P23219).
Sequence (P23219 whole entry): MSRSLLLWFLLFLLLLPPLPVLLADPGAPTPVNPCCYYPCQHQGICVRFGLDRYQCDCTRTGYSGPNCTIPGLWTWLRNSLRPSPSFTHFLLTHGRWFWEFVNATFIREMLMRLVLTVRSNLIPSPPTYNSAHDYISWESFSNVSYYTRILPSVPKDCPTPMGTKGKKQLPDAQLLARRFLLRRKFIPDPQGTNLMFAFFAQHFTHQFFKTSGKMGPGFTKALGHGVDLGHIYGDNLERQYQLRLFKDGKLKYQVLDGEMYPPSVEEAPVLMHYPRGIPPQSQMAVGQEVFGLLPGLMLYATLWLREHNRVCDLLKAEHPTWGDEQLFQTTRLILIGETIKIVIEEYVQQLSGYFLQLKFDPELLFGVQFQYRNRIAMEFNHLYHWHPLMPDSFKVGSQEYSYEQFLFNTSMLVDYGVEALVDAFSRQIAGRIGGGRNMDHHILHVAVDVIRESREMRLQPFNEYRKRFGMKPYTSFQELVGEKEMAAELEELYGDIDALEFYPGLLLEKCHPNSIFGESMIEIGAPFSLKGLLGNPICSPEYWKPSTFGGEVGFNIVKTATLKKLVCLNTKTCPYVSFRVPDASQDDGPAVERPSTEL

Recorded results for 2 molecules are shown here.
[
  {
    "structure as smiles": "Cc1nc(C2CCCCC2)c(-c2ccc(S(N)(=O)=O)c(N)c2)o1",
    "subject of test": "Prostaglandin G/H synthase 1 (Homo sapiens, UniProt P23219)",
    "recorded result": "> 100 µM"
  },
  {
    "structure as smiles": "CCc1nc(C2CCCCC2)c(-c2ccc(S(N)(=O)=O)c(F)c2)o1",
    "subject of test": "Prostaglandin G/H synthase 1 (Homo sapiens, UniProt P23219)",
    "recorded result": "47 µM"
  }
]

# get_value(readout='IC50', item= Cc1nc(C2CCCCC2)c(-c2ccc(S(N)(=O)=O)c(F)c2)o1 )
> 100 µM

What about COc1cc(-c2oc(C)nc2C2CCCCC2)ccc1S(N)(=O)=O ?
> 100 µM

What about Cc1nc(C2CCCCC2)c(-c2ccc(S(N)(=O)=O)c(O)c2)o1 ?
> 100 µM

----------
Consider the following IC50 values measured on Prostaglandin G/H synthase 2 (Homo sapiens, UniProt P35354).
Sequence (P35354 whole entry): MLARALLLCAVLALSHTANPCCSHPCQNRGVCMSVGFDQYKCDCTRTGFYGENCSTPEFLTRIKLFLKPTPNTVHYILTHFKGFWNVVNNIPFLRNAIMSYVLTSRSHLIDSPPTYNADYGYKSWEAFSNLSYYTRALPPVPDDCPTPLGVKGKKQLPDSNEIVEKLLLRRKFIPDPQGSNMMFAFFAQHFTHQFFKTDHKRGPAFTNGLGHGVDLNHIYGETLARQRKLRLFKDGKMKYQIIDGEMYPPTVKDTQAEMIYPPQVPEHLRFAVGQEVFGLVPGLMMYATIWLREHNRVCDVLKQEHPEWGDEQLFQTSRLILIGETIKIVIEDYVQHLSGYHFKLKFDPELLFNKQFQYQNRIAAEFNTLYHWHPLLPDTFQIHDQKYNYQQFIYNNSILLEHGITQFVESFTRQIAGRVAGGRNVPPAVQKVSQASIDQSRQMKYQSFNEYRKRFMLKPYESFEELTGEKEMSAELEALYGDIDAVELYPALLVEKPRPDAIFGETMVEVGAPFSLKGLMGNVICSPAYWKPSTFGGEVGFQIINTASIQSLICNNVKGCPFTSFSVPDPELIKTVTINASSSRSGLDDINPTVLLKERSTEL
State the answer as a number, implicitly in nM.

[
  {
    "structure as smiles": "CCc1nc(C2CCCCC2)c(-c2ccc(S(N)(=O)=O)c(F)c2)o1",
    "recorded result": 120
  }
]

# get_value(readout='IC50', item= CC(C)c1nc(C2CCCCC2)c(-c2ccc(S(N)(=O)=O)c(F)c2)o1 )
600

What about Cc1nc(C2CCCCC2)c(-c2ccc(S(N)(=O)=O)c(F)c2)o1 ?
85

What about Cc1nc(-c2ccc(C)s2)c(-c2ccc(S(N)(=O)=O)cc2)o1 ?
12

Numbers sourced from ChEMBL document CHEMBL1135906.
